The measurements presented in this section are drawn from patent EP0311051A2.

Tested on: Botrytis cinerea
Experiment: Activity persistence against gray mold of egg plant (spray 1 to 10 days before inoculation)
Type: in vivo
Settings: 250 ppm a.i.; 10 days between application and inoculation
measure.name: Infection degree

>>> assay_result("CCC(c1ccc(Cl)cc1Cl)C(C#N)c1cccnc1 (stereo not shown) [Compound 1]")
17.5
>>> assay_result("CCC(c1ccc(F)cc1Cl)C(C#N)c1cccnc1 (stereo not shown) [Compound 12]")
15.0
>>> assay_result("CC12CC1(C)C(=O)N(c1cc(Cl)cc(Cl)c1)C2=O (stereo not shown) [D]")
25.0
>>> assay_result("CCCC(c1ccc(Cl)cc1Cl)C(C#N)n1ccnc1 (stereo not shown) [A]")
62.5

====

Test system: Botrytis cinerea
Assay: Activity persistence against gray mold of egg plant (spray 1 to 10 days before inoculation)
Format: in vivo
Conditions: 250 ppm a.i.; 1 day between application and inoculation
measure.name: Infection degree

>>> assay_result("CCC(c1ccc(F)cc1Cl)C(C#N)c1cccnc1 (stereo not shown) [Compound 12]")
10.0
>>> assay_result("CCC(c1ccc(Cl)cc1Cl)C(C#N)c1cccnc1 (stereo not shown) [Compound 1]")
10.0
>>> assay_result("CCCC(c1ccc(Cl)cc1Cl)C(C#N)n1ccnc1 (stereo not shown) [A]")
25.0
>>> assay_result("CC12CC1(C)C(=O)N(c1cc(Cl)cc(Cl)c1)C2=O (stereo not shown) [D]")
12.0
